Data origin, for the record: patent US20180155413A1

target: HA of A/Victoria/3/75 (H3N2) (influenza A virus); assay: cell-based or functional assay
Neutralization (IC50) for assorted binders
Report the figure in nM without appending any unit label.

- GL20 IgG (antibody, V domains shown) VH: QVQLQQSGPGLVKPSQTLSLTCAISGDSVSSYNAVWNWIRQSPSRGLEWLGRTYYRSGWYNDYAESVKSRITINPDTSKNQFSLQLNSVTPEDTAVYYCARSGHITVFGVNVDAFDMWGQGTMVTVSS VL: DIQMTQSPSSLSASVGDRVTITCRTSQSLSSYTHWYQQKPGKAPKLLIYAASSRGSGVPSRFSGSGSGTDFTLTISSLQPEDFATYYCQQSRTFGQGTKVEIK: 12.9

Give the measured Neutralization (IC50) for FY1 IgG (antibody, V domains shown) VH: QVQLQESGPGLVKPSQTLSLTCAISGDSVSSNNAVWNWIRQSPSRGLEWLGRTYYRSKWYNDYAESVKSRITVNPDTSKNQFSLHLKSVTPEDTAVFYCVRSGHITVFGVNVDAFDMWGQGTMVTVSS VL: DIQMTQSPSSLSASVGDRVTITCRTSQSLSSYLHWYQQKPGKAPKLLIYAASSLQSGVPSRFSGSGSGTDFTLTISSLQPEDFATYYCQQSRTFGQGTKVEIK
12
